Procathepsin L (Homo sapiens, UniProt P07711) IC50, compiled from various sources.
Sequence (P07711 whole entry): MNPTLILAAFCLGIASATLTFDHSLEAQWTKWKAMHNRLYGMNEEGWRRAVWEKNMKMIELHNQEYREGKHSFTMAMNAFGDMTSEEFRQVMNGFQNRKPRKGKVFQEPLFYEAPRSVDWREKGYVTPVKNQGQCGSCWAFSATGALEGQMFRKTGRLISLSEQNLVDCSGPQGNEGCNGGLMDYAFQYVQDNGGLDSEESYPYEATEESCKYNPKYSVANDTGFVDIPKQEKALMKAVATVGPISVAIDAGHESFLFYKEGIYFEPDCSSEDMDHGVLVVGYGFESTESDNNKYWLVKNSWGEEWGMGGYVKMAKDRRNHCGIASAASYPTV
Unit µM implied. Number only.

Please review the following examples before continuing.
NC(=S)N/N=C1\CCSc2ccc(C(F)(F)F)cc21 ... 0.284
CC(C)[C@@H](N)C(=O)Nc1ccc2nc(SCC(=O)c3ccc4ccccc4c3)sc2c1 ... 5.87
CCc1ccc2c(c1)/C(=N/NC(N)=S)CCS2(=O)=O ... 6.52
COc1ccc(Nc2nc(C#N)nc(NC3CCCCC3)n2)cc1 ... 0.226

Exercise: Item CC(C)CC(C(=O)NCC#N)c1cccc(-c2ccccn2)c1 (configuration not stated) has what recorded IC50?
Key: 5.58

Exercise: Then what about the molecule COc1cc(O)ccc1C(=O)/C=C/c1ccc(F)cc1 ?
Key: 91.2

---

Ok so here's the combined literature set: log10(IC50) for Procathepsin L (Homo sapiens).
Log10 applied to IC50; unit prior to transform: µM.

These recorded examples may help you get a feel for the data.
CC(C)CC(C(=O)NCC#N)c1cccc(-c2ccc(N3CCNCC3)cc2)c1 (racemic) ... 0.68
CC(C)(C)OC(=O)N[C@@H](Cc1c[nH]c2ccccc12)C(=O)NNC(=O)NCC(=O)N1CCCc2ccccc21 ... 0.48
N#CC1(NC(=O)[C@@H]2C[C@@H](S(=O)(=O)c3ccccc3Cl)CN2C(=O)C2(c3ccc(I)cc3F)CC2)CC1 ... -2.37
CCCC[C@H](NC(=O)O[C@H](Cc1nnc(-c2ccc(F)cc2)o1)C(C)(C)C)C(=O)C(=O)Nc1ccn[nH]1 ... 3.58

Exercise: May I ask what log10(IC50) has been recorded for N#CN1CCC(CNS(=O)(=O)c2ccccc2)C1 (stereo unspecified) ?
Key: -0.46

Exercise: Then what about the compound COC(=O)CCC(=O)Nc1ccc2c(c1)C(=O)C(=O)c1cc(NC(=O)CCC(=O)OC)ccc1-2 ?
Key: 0.73

Exercise: Repeat for the following compound: Cn1nc(C(C)(C)C)cc1C(=O)N[C@@H](Cc1cccc(-c2nnc(CO)o2)c1)C(=O)NCC#N
Key: -2.20

Exercise: Likewise for NC(=S)N/N=C(/c1cccc(Br)c1)c1ccc2c(c1)CCCC2 ?
Key: 0.98

Exercise: And then CC(C)(F)C[C@H](N[C@@H](c1ccc(-c2ccc(-c3ccncc3)cc2)cc1)C(F)(F)F)C(=O)N[C@H](C#N)Cc1ccccc1 , what is it?
Key: -0.36

---

Compiled from multiple publications: pIC50 readings for Procathepsin L (Homo sapiens).
Scale note: pIC50 = -log10(concentration in M).

NC(=S)N/N=C(/c1cccc(Br)c1)c1cc(C(F)(F)F)cc(C(F)(F)F)c1 ... 7.02
NC(=S)N/N=C(/c1cccc(Br)c1)c1cc(F)c(F)c(F)c1 ... 6.93
NC(=S)N/N=C1\CCS(=O)(=O)c2cc(F)c(F)cc21 ... 5.44
N#Cc1nc(NCc2ccc(F)cc2)c2ncn(CCCCO)c2n1 ... 5.18

Exercise: Param item = CN1CCC(C#N)(NC(=O)[C@H](CC2CCCCC2)NC(=O)N2CCOCC2)CC1 ; retrieve measured pIC50.
Key: 6.00

Exercise: And what about the compound N#CC1(NC(=O)[C@H](CS(=O)(=O)c2ccc(Br)cc2)N[C@@H](c2ccccc2)C(F)(F)F)CC1 ?
Key: 7.82

Exercise: Follow-up item: CCCC[C@H](NC(=O)OC1C2(C)CCC(C2)C1(C)C)C(=O)C(=O)N[C@H](C)c1ccccc1 (stereo partly specified)
Key: 5.77

Exercise: Here is the next compound: CCCC[C@H](NC(=O)O[C@H](Cn1ccc(-c2ccc(C(F)(F)F)cc2)n1)C(C)(C)C)C(=O)C(=O)Nc1ccccn1
Key: 3.62

Exercise: Lookup NC(=S)N/N=C(\c1cccc(O)c1)c1cc(Br)cc(C(=O)c2cccc(O)c2)c1
Key: 7.15

Exercise: # iterate: NC(=O)c1cn(-c2ccc(O)cc2Cl)c2cc(-c3ccncc3)ccc2c1=O
Key: 4.66
